# Experiment: Tmax in NMRI-nu/nu mouse at 100 mg/kg,po measured upto 24 hrs by HPLC-MS/MS analysis
# Assay type: ADME, organism-based
# Test Settings: in vivo
Attribute Measured: Tmax (h)
Report the figure in h without appending any unit label.

In [3]: df
Out[3]:
                           molecular_string  unit_symbol  endpoint_result
0  Cc1cc(OC(F)F)ccc1NC(=O)c1cc(C(=O)NCc2ccc(F)cc2)c(F)cc1Cl            h                7
1  Cc1cc(N2CCOCC2)cnc1NC(=O)c1cc(C(=O)NCc2ccc(F)c(F)c2)c(F)cc1Cl            h                7

Attention now turns to another entry.
Endpoint output: Tmax of "CC(C)(O)c1ccc(NC(=O)c2cc(C(=O)NCc3ccc(F)c(F)c3)c(F)cc2Cl)cc1" . Value?
1

Origin of values: ChEMBL document CHEMBL5236643
